Origin of values: ChEMBL document CHEMBL6127118

Each record here notes measured log10 of IC50.
# measured_on: Androgen receptor (Homo sapiens, UniProt P10275)
# assay_notes: Antagonist activity at DHT-induced Androgen receptor in human LNCaP cells transfected with ARR2PB-eGFP incubated for 3 days
Record value = log10 of IC50 given in nM.

Below: 6 molecules and their reported log10 of IC50.
* O=c1cc(C(F)(F)F)c2ccc(NCc3ccc(C(F)(F)F)cc3)cc2o1 | 2.04
* O=c1cc(C(F)(F)F)c2ccc(NCc3ccc(CO)cc3)cc2o1 | 1.96
* CCN(Cc1cc(F)ccc1F)c1ccc2c(C(F)(F)F)cc(=O)oc2c1 | 2.63
* O=c1cc(C(F)(F)F)c2ccc(NCc3cccc(Br)c3)cc2o1 | 2.04
* O=c1cc(C(F)(F)F)c2ccc(NCc3ccc(Br)c(F)c3)cc2o1 | 1.84
* O=c1cc(C(F)(F)F)c2ccc(NCc3ccc(Br)cc3)cc2o1 | 1.62

Now, please, on to the next molecule.
Problem: Field request: log10 of IC50 | item: "O=c1cc(C(F)(F)F)c2ccc(NCc3ccc(O)cc3)cc2o1"
Result: 2.81

====

Each record here notes measured Cmax.
# assay_notes: Cmax in Sprague-Dawley rat at 1 mg/kg, iv
# Format: ADME, organism-based
# setup_conditions: in vivo
# output: bare number, implied unit ng/mL

Below: 3 molecules and their reported Cmax.
* O=c1cc(C(F)(F)F)c2ccc(NCc3ccc(Cl)cc3)cc2o1 | 395
* O=c1cc(C(F)(F)F)c2ccc(NCc3ccc(F)cc3)cc2o1 | 82.1
* CN(Cc1ccc(F)cc1)c1ccc2c(C(F)(F)F)cc(=O)oc2c1 | 1060

Now, please, on to the next molecule.
Problem: Field request: Cmax | item: "CN(Cc1ccc(Cl)cc1)c1ccc2c(C(F)(F)F)cc(=O)oc2c1"
Result: 809

====

# assay_notes: Half life in Sprague-Dawley rat at 5 mg/kg, po
# Assay type: ADME, organism-based
# setup_conditions: in vivo
measured_attribute: half-life (min)
# output: bare number, implied unit min

- CN(Cc1ccc(F)cc1)c1ccc2c(C(F)(F)F)cc(=O)oc2c1: 289

Problem: Field request: half-life | item: "CN(Cc1ccc(Cl)cc1)c1ccc2c(C(F)(F)F)cc(=O)oc2c1"
Result: 709

====

# assay_notes: AUC (0 to t) in Sprague-Dawley rat at 5 mg/kg, po
# Type: ADME, organism-based
# setup_conditions: in vivo
Each record here notes measured AUC(0-t).
# output: bare number, implied unit ng·h/mL

Below: 3 molecules and their reported AUC(0-t).
* CN(Cc1ccc(Cl)cc1)c1ccc2c(C(F)(F)F)cc(=O)oc2c1 | 724
* O=c1cc(C(F)(F)F)c2ccc(NCc3ccc(Cl)cc3)cc2o1 | 103
* O=c1cc(C(F)(F)F)c2ccc(NCc3ccc(F)cc3)cc2o1 | 4.09

Now, please, on to the next molecule.
Problem: Field request: AUC(0-t) | item: "CN(Cc1ccc(F)cc1)c1ccc2c(C(F)(F)F)cc(=O)oc2c1"
Result: 1410

====

Each record here notes measured bioavailability.
# assay_notes: Oral bioavailability in Sprague-Dawley rat at 5 mg/kg
# Assay type: ADME, organism-based
# setup_conditions: in vivo
# output: bare number, implied unit %

• O=c1cc(C(F)(F)F)c2ccc(NCc3ccc(Cl)cc3)cc2o1 = 13
• CN(Cc1ccc(F)cc1)c1ccc2c(C(F)(F)F)cc(=O)oc2c1 = 66.2
• O=c1cc(C(F)(F)F)c2ccc(NCc3ccc(F)cc3)cc2o1 = 2.5

Now, please, on to the next compound.
Problem: Field request: bioavailability | item: "CN(Cc1ccc(Cl)cc1)c1ccc2c(C(F)(F)F)cc(=O)oc2c1"
Result: 19.3

====

# measured_on: Androgen receptor (Homo sapiens)
# Sequence (P10275 whole entry): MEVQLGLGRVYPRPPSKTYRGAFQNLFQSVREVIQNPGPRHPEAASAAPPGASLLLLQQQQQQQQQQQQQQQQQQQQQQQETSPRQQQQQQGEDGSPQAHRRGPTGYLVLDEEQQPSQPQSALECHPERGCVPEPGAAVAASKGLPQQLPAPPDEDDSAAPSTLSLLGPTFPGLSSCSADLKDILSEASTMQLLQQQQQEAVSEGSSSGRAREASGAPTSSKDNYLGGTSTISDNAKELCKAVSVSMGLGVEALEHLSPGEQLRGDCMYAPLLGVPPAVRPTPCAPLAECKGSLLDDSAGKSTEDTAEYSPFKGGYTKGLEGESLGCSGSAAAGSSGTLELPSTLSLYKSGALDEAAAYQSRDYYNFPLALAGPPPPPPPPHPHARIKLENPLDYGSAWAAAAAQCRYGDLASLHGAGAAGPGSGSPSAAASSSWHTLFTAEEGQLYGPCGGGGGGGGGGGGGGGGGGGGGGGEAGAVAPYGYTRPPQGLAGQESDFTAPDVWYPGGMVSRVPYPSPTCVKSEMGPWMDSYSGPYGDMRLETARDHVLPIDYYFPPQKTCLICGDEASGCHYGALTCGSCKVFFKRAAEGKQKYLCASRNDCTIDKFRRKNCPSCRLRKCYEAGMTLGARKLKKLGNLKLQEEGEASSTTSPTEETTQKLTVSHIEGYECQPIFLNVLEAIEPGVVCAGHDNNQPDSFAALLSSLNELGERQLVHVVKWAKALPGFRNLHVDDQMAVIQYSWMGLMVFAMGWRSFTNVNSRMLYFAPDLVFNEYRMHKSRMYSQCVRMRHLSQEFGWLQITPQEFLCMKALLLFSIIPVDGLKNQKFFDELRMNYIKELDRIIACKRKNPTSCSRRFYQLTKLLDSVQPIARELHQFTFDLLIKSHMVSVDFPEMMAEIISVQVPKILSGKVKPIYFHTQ
# assay_notes: Antagonist activity at DHT-induced Androgen receptor in human LNCaP cells transfected with ARR2PB-eGFP incubated for 3 days
measured_attribute: pIC50
# pIC50: negative log10 of molar concentration; output just the value

• CCN(Cc1ccc(Br)cc1)c1ccc2c(C(F)(F)F)cc(=O)oc2c1 = 7.00
• CCN(Cc1ccc(Cl)cc1)c1ccc2c(C(F)(F)F)cc(=O)oc2c1 = 7.11

Problem: Query for Androgen receptor (Homo sapiens): what pIC50 does the record show for "O=c1cc(C(F)(F)F)c2ccc(OCc3ccc(Br)cc3)cc2o1" ?
Result: 6.23

Problem: Query for Androgen receptor (Homo sapiens): what pIC50 does the record show for "CN(Cc1ccc(Br)cc1)c1ccc2c(C(F)(F)F)cc(=O)oc2c1" ?
Result: 7.01

Problem: Query for Androgen receptor (Homo sapiens): what pIC50 does the record show for "O=c1cc(C(F)(F)F)c2ccc(NCc3cc(F)ccc3F)cc2o1" ?
Result: 7.47

Problem: Query for Androgen receptor (Homo sapiens): what pIC50 does the record show for "O=c1cc(C(F)(F)F)c2ccc(NCc3ccc(F)cc3)cc2o1" ?
Result: 7.62

Problem: Query for Androgen receptor (Homo sapiens): what pIC50 does the record show for "CCN(Cc1ccc(F)cc1)c1ccc2c(C(F)(F)F)cc(=O)oc2c1" ?
Result: 7.08

Problem: Query for Androgen receptor (Homo sapiens): what pIC50 does the record show for "O=c1cc(C(F)(F)F)c2ccc(NCc3ccccc3Br)cc2o1" ?
Result: 7.00

Problem: Query for Androgen receptor (Homo sapiens): what pIC50 does the record show for "O=c1cc(C(F)(F)F)c2ccc(NCc3ccc(OC(F)F)cc3)cc2o1" ?
Result: 7.17

Problem: Query for Androgen receptor (Homo sapiens): what pIC50 does the record show for "CN(Cc1cc(F)ccc1F)c1ccc2c(C(F)(F)F)cc(=O)oc2c1" ?
Result: 6.77

Problem: Query for Androgen receptor (Homo sapiens): what pIC50 does the record show for "Cc1ccc(CNc2ccc3c(C(F)(F)F)cc(=O)oc3c2)cc1F" ?
Result: 7.14

Problem: Query for Androgen receptor (Homo sapiens): what pIC50 does the record show for "CN(Cc1ccc(F)cc1)c1ccc2c(C(F)(F)F)cc(=O)oc2c1" ?
Result: 7.29

Problem: Query for Androgen receptor (Homo sapiens): what pIC50 does the record show for "N#Cc1ccc(CNc2ccc3c(C(F)(F)F)cc(=O)oc3c2)cc1" ?
Result: 6.05

====

# measured_on: Androgen receptor (Homo sapiens, UniProt P10275, F877L/T878A)
# assay_notes: Antagonist activity at DHT-induced Androgen receptor F876L/[…] mutant in human PC-3 cells transfected with ARR2PB-Luc by Dual-Luciferase Reporter assay
measured_attribute: IC50 (nM)
# output: bare number, implied unit nM

Problem: Field request: IC50 | item: "CN(Cc1ccc(F)cc1)c1ccc2c(C(F)(F)F)cc(=O)oc2c1"
Result: 170

====

# assay_notes: Clearance in Sprague-Dawley rat at 5 mg/kg, po
# Assay type: ADME, organism-based
# setup_conditions: in vivo
measured_attribute: CL/F (mL/min/kg)
# output: bare number, implied unit mL/min/kg

- CN(Cc1ccc(F)cc1)c1ccc2c(C(F)(F)F)cc(=O)oc2c1: 58.5

Problem: Field request: CL/F | item: "CN(Cc1ccc(Cl)cc1)c1ccc2c(C(F)(F)F)cc(=O)oc2c1"
Result: 68
